# method: qHTS Assay for Anthrax Lethal Toxin Internalization; note: nearly all actives have a fitted effect of over 50% in size; for activity change, negative = inhibition: % is set by controls: 0 for no effect and ±100 for the full control effect
# condition label: Cells, FRET ratio (460/530); series mostly up to 40 µM
Screen size: about 70,000 compounds; about 470 (0.67%) were called active. Not shown: some 18% with an inconclusive outcome. This is one part of a sample in which actives are shown more often than they occur.
endpoint: activity change, negative = inhibition

>  <compound>
O=C(O)COc1c(Cl)cc(Cl)c2cccnc12

>  <observed result>
10.5% [at 8 µM] (inactive)

$$$$
>  <compound>
c1cncc(-c2nc(N3CCNCC3)c3ccccc3n2)c1

>  <observed result>
inactive

$$$$
>  <compound>
CO[C@H]1COC(=O)[C@H](Cc2ccccc2)NC(=O)C/C=C\[C@@H](C)[C@H](OC)COC(=O)C/C=C\[C@@H]1C

>  <observed result>
30% [at 8 µM] (inactive)

$$$$
>  <compound>
CSc1nnc2c(n1)OC(c1cn(C)c3ccccc13)N(C(C)=O)c1ccccc1-2 (configuration not stated)

>  <observed result>
inactive

$$$$
>  <compound>
Cc1cc(C)cc(C#CC2C=CC(Oc3ccc(C4CCCC4)cc3)C(CO)O2)c1 (configuration not stated)

>  <observed result>
-16.6% [at 8 µM] (inactive)

$$$$
>  <compound>
NCCCNCCCCN(CCCN)/[N+]([O-])=N/O

>  <observed result>
inactive

$$$$
>  <compound>
COC(=O)[C@@]1(Cc2ccccc2)[C@H]2c3cc(C(=O)N(C)C)n(CCSCCO)c3C[C@H]2CN1C(=O)c1ccccc1

>  <observed result>
inactive

$$$$
>  <compound>
Cn1c2c(c(=O)n(C)c1=O)C1c3ccccc3OCC1C(C)(C)O2 (configuration not stated)

>  <observed result>
inactive

$$$$

Tell me activity change, negative = inhibition reported for `O=NO` inactive

Tell me activity change, negative = inhibition reported for `COCCn1c(=O)c(C)nc2cnc(N(C)C)nc21` inactive

Tell me activity change, negative = inhibition reported for `C/C=C/C=C/C(=O)O` inactive

Tell me activity change, negative = inhibition reported for `COC(=O)[C@@]1(Cc2ccc(F)cc2)[C@@H]2[C@@H](CC(=O)[C@H]2CC(=O)C(=O)N2CCCC2)CN1C(=O)c1ccccc1` inactive

Tell me activity change, negative = inhibition reported for `CS(=O)(=O)N1CCC2(CC1)CN(c1ccncc1)C2` inactive

Tell me activity change, negative = inhibition reported for `CC(C)C[C@H](NC(=O)NCCc1ccc(Cl)cc1)C(=O)O` inactive

Tell me activity change, negative = inhibition reported for `CN1CCN(CCCNC(=O)c2cc3c(=O)oc4ccccc4c3s2)CC1` inactive

Tell me activity change, negative = inhibition reported for `CC(C)=CCC/C(C)=C/CO/N=C1/C[C@@H](O)[C@@H](O)[C@@H]2[C@@H]3C(=O)N(C(C)(C)C)C(=O)[C@H]3CC[C@H]12` 4.39% [at 1.6 µM] (inactive)

----------
# method: qHTS Assay for Anthrax Lethal Toxin Internalization; note: nearly all actives have a fitted effect of over 50% in size; note: potency is the fitted concentration of half-maximal effect
# condition label: Cells, FRET ratio (460/530); series mostly up to 40 µM
Hit rate of the full screen: of about 70,000 compounds, about 470 (0.67%) were called active. Roughly 18% stayed inconclusive and do not appear here. The sample holds actives, similar compounds and a random draw of the others, so the mix is not that of the screen.
endpoint: Potency

Tell me Potency reported for CCOC(=O)C1Cn2c(nc3c(c2=O)C(C)(CC)Cc2ccccc2-3)S1 (centres undefined) 6.31 µM (active)

Tell me Potency reported for `Cc1ccnc(-n2sc3ccccc3c2=O)n1` 0.316 µM (active)

Tell me Potency reported for `Oc1cc2c(cc1O)CN(C(=S)NCCc1ccc(Cl)cc1)CCC2` 15.8 µM (active)

Tell me Potency reported for `CC(C)(O)/C=C\C(=O)[C@](C)(O)[C@H]1[C@H](O)C[C@]2(C)[C@@H]3CC=C4[C@@H](C=C(O)C(=O)C4(C)C)[C@]3(C)C(=O)C[C@@]12C` 0.0316 µM (active)

----------
For each entry below, report its Potency value.
# method: qHTS Assay for Anthrax Lethal Toxin Internalization; note: nearly all actives have a fitted effect of over 50% in size; note: potency is the fitted concentration of half-maximal effect
# condition label: Cells, FRET ratio (460/530); series mostly up to 40 µM
Out of some 70,000 compounds screened, about 470 (0.67%) were called active. Not shown: some 18% with an inconclusive outcome. The full list was thinned out, with actives kept by preference.

Tell me Potency reported for `O=C(NCCc1ccc2c(c1)OCCO2)c1cc2ccccc2o1` 12.6 µM (active)

Tell me Potency reported for `COc1ccc(N2C(=O)c3cccc4cccc(c34)C2=O)nn1` 7.94 µM (active)

Tell me Potency reported for CCN1CCCC1CNC(=O)c1cc2c(=O)n(C)c3ccccc3c2n1C (stereo unspecified) 10 µM (active)

Tell me Potency reported for `CC(=O)c1c(O)c(C)c(O)c(Cc2c(O)c3c(c(C(=O)/C=C\c4ccccc4)c2O)OC(C)(C)C=C3)c1O` 15.8 µM (active)

Tell me Potency reported for `Cc1ccccc1OCC(=O)Nc1ccc(N2CCN(C(=O)C(C)C)CC2)c(Cl)c1` 12.6 µM (active)

Tell me Potency reported for `c1ccc2c(c1)[I+]c1ccccc1-2` 15.8 µM (active)

Tell me Potency reported for `CSc1ccc(-c2c(C#N)c(N)nc3c2c(C)nn3-c2ccccc2)cc1` 1.26 µM (active)

Tell me Potency reported for CC1CCCC(C)N1CCCNC(=O)c1cc2c(=O)n(C)c3ccccc3c2n1C (stereo unspecified) 3.98 µM (active)

Tell me Potency reported for `CC(=O)Oc1ccccc1C(=O)Nc1ncc([N+](=O)[O-])s1` 1.26 µM (active)

Tell me Potency reported for `c1ccc(CN2CC[C@@]3(CCCNC3)C2)cc1` 10 µM (active)

Tell me Potency reported for `N#Cc1nc(-c2ccc(OCc3ccccc3)cc2)oc1NCCCN1CCOCC1` 12.6 µM (active)

----------
# method: qHTS Assay for Anthrax Lethal Toxin Internalization; note: nearly all actives have a fitted effect of over 50% in size; for activity change, negative = inhibition: % is set by controls: 0 for no effect and ±100 for the full control effect
# condition label: Cells, FRET ratio (460/530); series mostly up to 40 µM
The campaign covered roughly 70,000 compounds. About 470 (0.67%) were called active. Not shown: some 18% with an inconclusive outcome. The sample as a whole holds a higher share of actives than the screen did.
endpoint: activity change, negative = inhibition

Answered examples (8):
>  <compound>
O=C(CSC1=Nc2ccccc2C2=NC(c3ccccc3)C(=O)N12)NCC1CCCO1 (stereo not given)

>  <activity change, negative = inhibition>
inactive

$$$$
>  <compound>
CC(=O)OCC1OC(C#Cc2ccccc2Cl)C=CC1OC(C)=O (stereo not given)

>  <activity change, negative = inhibition>
-7.54% [at 8 µM] (inactive)

$$$$
>  <compound>
C[C@@H]1C[C@H]2[C@@H]3C[C@H](F)C4=CC(=O)C=C[C@@]4(C)[C@]3(F)[C@H](O)C[C@]2(C)[C@@]1(O)C(=O)CO

>  <activity change, negative = inhibition>
2.5% [at 3.58 µM] (inactive)

$$$$
>  <compound>
CCOC(=O)Cn1c(CN(Cc2ccccc2)Cc2ccccc2)nc2c1c(=O)[nH]c(=O)n2C

>  <activity change, negative = inhibition>
inactive

$$$$
>  <compound>
Oc1ccc(O)c2c(O)cccc12

>  <activity change, negative = inhibition>
inactive

$$$$
>  <compound>
C#CCC(C(=O)OC)(C(=O)OC)C(C[N+](=O)[O-])c1ccccc1 (stereo not given)

>  <activity change, negative = inhibition>
2.17% [at 8 µM] (inactive)

$$$$
>  <compound>
CC(C)CSC[C@@H]1O[C@H](n2cnc3c(N)nccc32)[C@H](O)[C@@H]1O

>  <activity change, negative = inhibition>
-14.1% [at 8 µM] (inactive)

$$$$
>  <compound>
COc1ccc(NC(=O)C2CCCN(S(=O)(=O)c3cccc4cccnc34)C2)cc1OC (stereo not given)

>  <activity change, negative = inhibition>
inactive

$$$$

Tell me activity change, negative = inhibition reported for O=C(O)C1CCCN(S(=O)(=O)c2cccc3cccnc23)C1 (stereo not given) inactive

Tell me activity change, negative = inhibition reported for `Cc1cc(C(=O)O)ccc1[N+](=O)[O-]` inactive

----------
# method: qHTS Assay for Anthrax Lethal Toxin Internalization; note: nearly all actives have a fitted effect of over 50% in size; for activity change, negative = inhibition: % is set by controls: 0 for no effect and ±100 for the full control effect
# condition label: Cells, FRET ratio (460/530); series mostly up to 40 µM
Among all 70,000 compounds or so, about 470 (0.67%) were called active. Roughly 18% stayed inconclusive and do not appear here. The list comes from a sample in which actives are over-represented; it also holds close analogues and randomly drawn compounds.
endpoint: activity change, negative = inhibition

Answered examples (10):
>  <compound>
C[N+](C)(CCCCCC[N+](C)(C)CCCN1C(=O)c2cccc3cccc(c23)C1=O)CCCN1C(=O)c2cccc3cccc(c23)C1=O

>  <observed result>
inactive

$$$$
>  <compound>
COc1ccc(C(=O)N2CCC3(CCCN(C(c4ccccc4)c4ccccc4)C3)CC2)cc1

>  <observed result>
inactive

$$$$
>  <compound>
O=C(Nc1ccccc1-c1nnn(CC(=O)N2CCN(c3ccccc3)CC2)n1)c1cccs1

>  <observed result>
inactive

$$$$
>  <compound>
COc1cccc([C@H](O)Cn2cc(-c3ccc(CON=C(C)C)cc3)nn2)c1

>  <observed result>
-1.91% [at 8 µM] (inactive)

$$$$
>  <compound>
Cc1c(C)c2c(c(C)c1O)CC[C@@](C)(CN1CCN(c3cc(N4CCCC4)nc(N4CCCC4)n3)CC1)O2

>  <observed result>
inactive

$$$$
>  <compound>
C[C@@H]1/C=C\CC(=O)OC[C@H]2O[C@@H](C=C[C@@H]2O)[C@H](C)/C=C\CC(=O)OC[C@H]2O[C@H]1C=C[C@@H]2O

>  <observed result>
0.461% [at 0.32 µM] (inactive)

$$$$
>  <compound>
Cc1cccc(C(=O)O)c1

>  <observed result>
inactive

$$$$
>  <compound>
C=CCOC(=O)C(C(C)=O)C(NC(=O)OC)c1ccccc1 (stereo unspecified)

>  <observed result>
-6.02% [at 8 µM] (inactive)

$$$$
>  <compound>
CC(C)CC1(C(=O)NCc2ccccn2)C=CCN1C(=O)c1ccccc1 (stereo unspecified)

>  <observed result>
inactive

$$$$
>  <compound>
Cc1ccc(Br)cc1

>  <observed result>
inactive

$$$$

Tell me activity change, negative = inhibition reported for CC(Cc1ccccc1)C(=O)N(C)Cc1ccccc1 (stereo unspecified) inactive

Tell me activity change, negative = inhibition reported for `CCOC(=O)N/N=C1/C[C@@H](O)[C@@H](O)[C@@H]2[C@@H]3C(=O)N(CC)C(=O)[C@H]3CC[C@H]12` 4.77% [at 8 µM] (inactive)

Tell me activity change, negative = inhibition reported for `Cc1nn(Cc2ccc(Cl)c(Cl)c2)c(C)c1NC(=O)c1cc(C2CC2)on1` inactive

Tell me activity change, negative = inhibition reported for `COc1ncc2nc(-c3ccc(Cl)cc3)c(=O)n(C)c2n1` inactive

Tell me activity change, negative = inhibition reported for COC(=O)C1(Cc2ccccc2)C=C2C(=C(C)C(=O)C2C)CN1 (stereo unspecified) inactive

Tell me activity change, negative = inhibition reported for CCOc1ccc(/C(O)=C2/C(=O)C(=O)N(Cc3cccnc3)C2c2ccc(N(C)C)cc2)c(C)c1 (stereo unspecified) inactive

Tell me activity change, negative = inhibition reported for `COC(=O)[C@H]1C[C@@H]1[C@H](NC(=O)Oc1ccc(F)cc1)c1ccccc1` inactive

Tell me activity change, negative = inhibition reported for `COc1ccccc1CNc1ccnc(-c2c(C)noc2C)n1` inactive

Tell me activity change, negative = inhibition reported for `N#Cc1cccc(-c2nc3cnc(N4CCNCC4)nc3n(C3CC3)c2=O)c1` inactive

Tell me activity change, negative = inhibition reported for `CC(=O)/C(C)=N\O` inactive

Tell me activity change, negative = inhibition reported for `CC[C@]1(C)CC(=O)NC1=O` inactive
